The measurements presented in this section are drawn from patent US9096560B2.

system: Alopecurus myosuroides (ALOMY); assay: Example B post-emergence herbicidal test, ALOMY; type: in vivo; settings: Alopecurus myosuroides, 312 h, rate 250 g/ha, evaluated after 13 days, scale 0-100, read-out: Post-emergence activity ALOMY (100=total damage to plant; 0=no damage to plant)

molecule | pest or weed control at 250 g/ha [%]
Cc1cc(C)c(C2C(=O)C/C(=C\C3CC[S+]([O-])CC3)C2=O)c(C)c1 (centres unmarked) [Compound T11] | 60
Cc1cc(C)c(C2C(=O)CC(CC3CCN(C(=O)c4cc(F)c(Cl)nc4Cl)CC3)C2=O)c(C)c1 (centres unmarked) [Compound T106] | 40
COCCOC(=O)N1CCC(CC2CC(=O)C(c3c(C)cc(C)cc3C)C2=O)CC1 (centres unmarked) [Compound T123] | 80
CCc1cc(C)cc(C)c1C1C(=O)CC(CCC2CCOCC2)C1=O (centres unmarked) [Compound T58] | 100
Cc1cc(C)c(C2C(=O)CC(CC3CCOC3)C2=O)c(C)c1 (centres unmarked) [Compound T5] | 100

###

system: Alopecurus myosuroides (ALOMY); experiment: Example B post-emergence herbicidal test, ALOMY; assay type: in vivo; conditions: Alopecurus myosuroides, 312 h, rate 250 g/ha, evaluated after 13 days, scale 0-100, read-out: Post-emergence activity ALOMY (100=total damage to plant; 0=no damage to plant)
Rule: pest or weed control at 250 g/ha below 80% gives t. Equal to or above 80% gives f.

compound | class
Cc1cc(C)c(C2C(=O)CC(CC3CCN(C(=O)c4c(C)noc4C)CC3)C2=O)c(C)c1 (stereo not shown) | t
Cc1cc(C)c(C2=C(OC(=O)c3ccco3)CC(CC3CCN(C(=O)c4ccco4)C3)C2=O)c(C)c1 (stereo not shown) | t
CC(=O)N1CCC(CC2CC(=O)C(c3c(C)cc(C)cc3C)C2=O)C1 (stereo not shown) | t
Cc1cc(C)c(C2C(=O)CC(CC3CCN(C(=O)c4ccc(F)cc4)CC3)C2=O)c(C)c1 (stereo not shown) | f
Cc1cc(C)c(C2C(=O)CC(CC3CCN(C(=O)Oc4ccccc4)CC3)C2=O)c(C)c1 (stereo not shown) | t
Cc1cc(C)c(C2C(=O)CC(CC3CCN(C(=O)c4ccsc4)CC3)C2=O)c(C)c1 (stereo not shown) | t
Cc1cc(C)c(C2C(=O)CC(CC3CCN(C(=O)/C=C/c4ccccc4)CC3)C2=O)c(C)c1 (stereo not shown) | t
CCC(=O)OC1=C(c2c(C)cc(C)cc2C)C(=O)C(CC2CCN(C(=O)CC)CC2)C1 (stereo not shown) | f
COc1ccc(C(=O)OC2=C(c3c(C)cc(C)cc3C)C(=O)CC2CC2CCOC2)cc1 (stereo not shown) | f
CCCC(=O)N1CCC(CC2CC(=O)C(c3c(C)cc(C)cc3C)C2=O)CC1 (stereo not shown) | f
COC(=O)N1CCC(CC2CC(=O)C(c3c(C)cc(C)cc3C)C2=O)C1 (stereo not shown) | f
CON1CCC(CC2CC(OC(C)=O)=C(c3c(C)cc(C)cc3C)C2=O)CC1 (stereo not shown) | f
Cc1cc(C)c(C2C(=O)CC(CC3CCN(C(=O)c4cn(C)nc4C(F)F)CC3)C2=O)c(C)c1 (stereo not shown) | t
Cc1cc(C)c(C2=C(OC(=O)OC(C)(C)C)C/C(=C\C3CCN(C(=O)OC(C)(C)C)CC3)C2=O)c(C)c1 | t
CCSC(=O)N1CCC(/C=C2\CC(=O)C(c3c(C)cc(C)cc3C)C2=O)C1 (stereo not shown) | t

###

Overview of reported pest or weed control at 250 g/ha across a group of molecules:
tested on: Echinochloa crus-galli (ECHCG); assay: Example B post-emergence herbicidal test, ECHCG; format: in vivo; settings: Echinochloa crus-galli, 312 h, rate 250 g/ha, evaluated after 13 days, scale 0-100, read-out: Post-emergence activity ECHCG (100=total damage to plant; 0=no damage to plant)

molecule | pest or weed control at 250 g/ha, %
Cc1cc(C)c(C2C(=O)C/C(=C\C3CCOC3)C2=O)c(C)c1 (stereo not drawn) | 100
COC(=O)OC1=C(c2c(C)cc(C)cc2C)C(=O)C(CC2CCOCC2)C1 (stereo not drawn) | 90
CCCCOC(=O)N1CCC(CC2CC(=O)C(c3c(C)cc(C)cc3C)C2=O)CC1 (stereo not drawn) | 20
Cc1cc(C)c(C2C(=O)C/C(=C\C3CCN(Cc4ccccc4)CC3)C2=O)c(C)c1 (stereo not drawn) | 40
Cc1cc(C)c(C2C(=O)CC(CC3CCN(C(=O)c4ccccc4C)CC3)C2=O)c(C)c1 (stereo not drawn) | 90
Cc1cc(C)c(C2C(=O)CC(CC3CCN(C(=O)c4cccs4)C3)C2=O)c(C)c1 (stereo not drawn) | 70
Cc1cc(C)c(C2=C(OC(=O)C3CCCCC3)CC(CC3CCOC3)C2=O)c(C)c1 (stereo not drawn) | 100
Cc1cc(C)c(C2C(=O)CC(CC3CCN(S(C)(=O)=O)CC3)C2=O)c(C)c1 (stereo not drawn) | 90
C=CCOC(=O)N1CCC(CC2CC(=O)C(c3c(C)cc(C)cc3C)C2=O)CC1 (stereo not drawn) | 20
Cc1cc(C)c(C2=C(OS(C)(=O)=O)C/C(=C\C3CCN(S(C)(=O)=O)C3)C2=O)c(C)c1 (stereo not drawn) | 70
CCOC(=O)N1CCC(CC2CC(=O)C(c3c(C)cc(C)cc3C)C2=O)CC1 (stereo not drawn) | 40
CCCCS(=O)(=O)N1CCC(CC2CC(=O)C(c3c(C)cc(C)cc3C)C2=O)CC1 (stereo not drawn) | 40
CON1CCC(CC2CC(OC(=O)C(C)(C)C)=C(c3c(C)cc(C)cc3C)C2=O)CC1 (stereo not drawn) | 100
Cc1cc(C)c(C2C(=O)CC(CC3CCN(C(=O)OCCCl)CC3)C2=O)c(C)c1 (stereo not drawn) | 30
Cc1cccc(C(=O)N2CCC(CC3CC(=O)C(c4c(C)cc(C)cc4C)C3=O)CC2)c1 (stereo not drawn) | 70
COc1ccc(C(=O)OC2=C(c3c(C)cc(C)cc3C)C(=O)CC2CC2CCOC2)cc1 (stereo not drawn) | 100
Cc1cc(C)c(C2C(=O)C(Cc3ccccc3)C(CC3CCOC3)C2=O)c(C)c1 (stereo not drawn) | 40
Cc1cc(C)c(C2C(=O)C/C(=C\C3CCOCC3)C2=O)c(C)c1 (stereo not drawn) | 100
CC(=O)N1CCC(/C=C2\CC(=O)C(c3c(C)cc(C)cc3C)C2=O)CC1 (stereo not drawn) | 100
Cc1cc(-c2ccc(F)cc2)cc(C)c1C1C(=O)CC(CC2CCOC2)C1=O (stereo not drawn) | 100
Cc1cc(C)c(C2C(=O)CC(CC3CCN(S(=O)(=O)c4ccc(Cl)cc4)CC3)C2=O)c(C)c1 (stereo not drawn) | 40
Cc1cc(C)c(C2C(=O)CC(CC3CCN(C(=O)c4cn(C)nc4C(F)F)CC3)C2=O)c(C)c1 (stereo not drawn) | 20
CCSC(=O)N1CCC(/C=C2\CC(=O)C(c3c(C)cc(C)cc3C)C2=O)C1 (stereo not drawn) | 60
Cc1cc(C)c(C2=C(OS(=O)(=O)C3CC3)CC(CC3CCOC3)C2=O)c(C)c1 (stereo not drawn) | 60
CCS(=O)(=O)N1CCC(CC2CC(=O)C(c3c(C)cc(C)cc3C)C2=O)CC1 (stereo not drawn) | 70
Cc1cccc(C)c1C1C(=O)CC(CC2CCOCC2)C1=O (stereo not drawn) | 100
Cc1cc(C)c(C2C(=O)CC(CC3CCN(C(=O)c4ccco4)C3)C2=O)c(C)c1 (stereo not drawn) | 50
Cc1cc(-c2ccc(Cl)cc2)cc(C)c1C1C(=O)C/C(=C\C2CCOCC2)C1=O (stereo not drawn) | 100
COC(=O)N1CCC(/C=C2\CC(=O)C(c3c(C)cc(C)cc3C)C2=O)C1 (stereo not drawn) | 90
Cc1cc(C)c(C2=C(OC(=O)C(C)(C)C)C/C(=C\C3CCOCC3)C2=O)c(C)c1 | 100
Cc1cc(C)c(C2C(=O)CC(CC3CCN(c4ccc(Cl)cc4)CC3)C2=O)c(C)c1 (stereo not drawn) | 10
Cc1cc(-c2ccc(C(F)(F)F)cc2)cc(C)c1C1C(=O)CC(CC2CCOCC2)C1=O (stereo not drawn) | 60
Cc1cc(C)c(C2C(=O)C/C(=C\C3CCN(C(=O)OC(C)(C)C)CC3)C2=O)c(C)c1 (stereo not drawn) | 80

###

test system: Echinochloa crus-galli (ECHCG); assay: Example B post-emergence herbicidal test, ECHCG; assay type: in vivo; conditions: Echinochloa crus-galli, 312 h, rate 250 g/ha, evaluated after 13 days, scale 0-100, read-out: Post-emergence activity ECHCG (100=total damage to plant; 0=no damage to plant)
Overview of reported pest or weed control at 250 g/ha across a group of compounds:

compound | unit_spec | pest or weed control at 250 g/ha
Cc1cc(C)c(C2C(=O)CC(CC3OCCO3)C2=O)c(C)c1 (stereo not shown) | % | 60
Cc1cc(C)c(C2C(=O)C/C(=C\C3CCSCC3)C2=O)c(C)c1 (stereo not shown) | % | 80
Cc1cc(C)c(C2=C(OC(=O)c3c(C)noc3C)CC(CC3CCN(C(=O)c4c(C)noc4C)C3)C2=O)c(C)c1 (stereo not shown) | % | 70
Cc1cc(C)c(C2C(=O)C/C(=C\C3CC[S+]([O-])CC3)C2=O)c(C)c1 (stereo not shown) | % | 70
